tested on: human red blood cells (hRBC); assay type: cell-based; details: red cells of human, 1 h
*1 amine or outer side, *2 acyl side, *3 side chain or, on linkers, in order; H or OH if unused. Where a SMILES comes first, the peptide text is derived from it. Bridges are numbered along the chain shown (N, C = ends). [ ]: non-standard residue; d: D form. NHCH2(1,3-C6H4)CH2CO = O=C(Cc1cccc(CN[*:1])c1)[*:2]; Phe(4-NH2) = Nc1ccc(C[C@H](N)C(=O)O)cc1; 2Nal = N[C@@H](Cc1ccc2ccccc2c1)C(=O)O; Cit = NC(=O)NCCC[C@H](N)C(=O)O
Property Label: Hemolysis at 100 μM (%)
// return numeric value only (unit: %, not printed)

What measured Hemolysis at 100 μM goes with N=C(N)NCCC[C@H](NC(=O)[C@@H]1CSSC[C@H](NC(=O)[C@H](Cc2ccc(N)cc2)NC(=O)[C@H](CCCNC(=N)N)NC(=O)[C@@H](N)CCCNC(=N)N)C(=O)N[C@@H](Cc2ccc(O)cc2)C(=O)N[C@@H](CCCNC(N)=O)C(=O)N[C@@H](CCCCN)C(=O)N2CCC[C@@H]2C(=O)N2CCC[C@H]2C(=O)N[C@@H](Cc2ccc(O)cc2)C(=O)N[C@@H](CCCNC(=N)N)C(=O)N[C@@H](CCCNC(N)=O)C(=O)N1)C(N)=O [Example 12] (H-RR[Phe(4-NH2)]CY[Cit]K[dP]PYR[Cit]CR-NH2; disulfide 4-13) ?
0.1

For the compound N=C(N)NCCC[C@H](NC(=O)[C@@H]1CSSC[C@H](NC(=O)[C@H](Cc2ccc3ccccc3c2)NC(=O)[C@H](CCCNC(=N)N)NC(=O)[C@@H](N)CCCNC(=N)N)C(=O)N[C@@H](Cc2ccc(O)cc2)C(=O)N[C@@H](CCCNC(N)=O)C(=O)N[C@@H](CCCCN)C(=O)N2CCC[C@H]2C(=O)N2CCC[C@H]2C(=O)N[C@@H](Cc2ccc(O)cc2)C(=O)N[C@@H](CCCNC(=N)N)C(=O)N[C@@H](CCCNC(N)=O)C(=O)N1)C(N)=O [Example 24] (H-RR[2Nal]CY[Cit]KPPYR[Cit]CR-NH2; disulfide 4-13) , what Hemolysis at 100 μM is on record?
1.1

Please look up its Hemolysis at 100 μM: N=C(N)NCCC[C@H](NC(=O)[C@@H]1CSSC[C@H](NC(=O)[C@H](Cc2ccc3ccccc3c2)NC(=O)[C@H](CCCNC(=N)N)NC(=O)[C@@H](N)CCCNC(=N)N)C(=O)N[C@@H](Cc2ccc(O)cc2)C(=O)N[C@@H](CCCNC(N)=O)C(=O)N[C@@H](CCCCN)C(=O)NCc2cccc(c2)CC(=O)N[C@@H](Cc2ccc(O)cc2)C(=O)N[C@@H](CCCNC(=N)N)C(=O)N[C@@H](CCCNC(N)=O)C(=O)N1)C(N)=O [Example 22] (H-RR[2Nal]CY[Cit]K[NHCH2(1,3-C6H4)CH2CO]YR[Cit]CR-NH2; disulfide 4-12)
0.1

Entry N=C(N)NCCC[C@H](NC(=O)[C@@H]1CSSC[C@H](NC(=O)[C@H](Cc2ccc3ccccc3c2)NC(=O)[C@H](CCCNC(=N)N)NC(=O)[C@@H](N)CCCNC(=N)N)C(=O)N[C@@H](Cc2ccc(O)cc2)C(=O)N[C@@H](CCCNC(=N)N)C(=O)N2CCC[C@@H]2C(=O)N2CCC[C@H]2C(=O)N[C@@H](Cc2ccc(O)cc2)C(=O)N[C@@H](CCCNC(=N)N)C(=O)N1)C(N)=O [Example 5] (H-RR[2Nal]CYR[dP]PYRCR-NH2; disulfide 4-11; N-terminus assumed) : reported Hemolysis at 100 μM = ?
0.7

Looking for the measured Hemolysis at 100 μM of CC(=O)N[C@@H](CCCNC(=N)N)C(=O)N[C@@H](CCCNC(=N)N)C(=O)N[C@@H](Cc1ccc2ccccc2c1)C(=O)N[C@H]1CSSC[C@@H](C(=O)N[C@@H](CCCNC(=N)N)C(N)=O)NC(=O)[C@H](CCCNC(N)=O)NC(=O)[C@H](CCCNC(=N)N)NC(=O)[C@H](Cc2ccc(O)cc2)NC(=O)[C@@H]2CCCN2C(=O)[C@H]2CCCN2C(=O)[C@H](CCCCN)NC(=O)[C@H](CCCNC(N)=O)NC(=O)[C@H](Cc2ccc(O)cc2)NC1=O [Example 8] (Ac-RR[2Nal]CY[Cit]K[dP]PYR[Cit]CR-NH2; disulfide 4-13) , can you help?
0.1
